Reported Population Mitochondria Different-Phenotype (%) values follow for various compounds
# Test system: Fibroblast
# methodNotes: Multiplex assay against human fibroblast
# Format: toxicity, cell-based
# reportedConditions: 24 h, 1 µM, compound concentration 1 uM, replicate 2
assayMetric: Population Mitochondria Different-Phenotype (%)

compound | quantitativeReadout
S=C(NCCCc1c[nH]cn1)NCCCN(Cc1ccc(Cl)c(Cl)c1)c1ccc(Br)cn1 | 6
C[C@@H]1CC(=O)Nc2cccc(-c3ccc4c(c3)c(-c3cnn(C)c3)nn4C)c2N1 | 9
COc1cc(C(=O)N2CC[C@@H](O)[C@@H](N)C2)cc2nc(-c3cc4ccccc4n3CC3CC3)n(C)c12.Cl | 20
Cc1cc(NC(=O)NCCN2CCC(O)(Cc3ccccc3)CC2)c2ccccc2n1 | 21
CC(C)(O)C(=O)N1CCN(c2ccc(C(F)(F)F)c(C3=C(c4c[nH]c5ccccc45)C(=O)NC3=O)c2)CC1 | 8
Cl.Cl.OCCOCCN1CCN(C(c2ccccc2)c2ccc(Cl)cc2)CC1 (configuration not stated) [HYDROXYZINE HYDROCHLORIDE] | 3
CN1C[C@H](C(=O)N[C@]2(C)O[C@@]3(O)[C@@H]4CCCN4C(=O)[C@H](Cc4ccccc4)N3C2=O)C[C@@H]2c3cccc4[nH]cc(c34)C[C@H]21.CS(=O)(=O)O [DIHYDROERGOTAMINE MESYLATE] | 3

Origin of the recorded values: ChEMBL document CHEMBL5058577
